Values from ChEMBL document CHEMBL3988442

Molecular target: Tyrosyl-tRNA synthetase, putative (Trypanosoma cruzi (strain CL Brener))
Test: Trypanosoma cruzi tyrosyl tRNA synthetase (TcYRS) _High Tyrosine SOP
Type: functional
Set-up: scale not given: in the data most compounds retested in dose-response had high values
Conditions: 30 µM
MEASUREMENT_LABEL: Percent Effect
Record the result as number plus unit.

The examples below pair each entry with its known result.
- COMPOUND: "CN(Cc1csc(-c2cccs2)n1)C(=O)CCn1ccccc1=O"
  Percent Effect: "3.83%"
- COMPOUND: "COc1ccccc1OCC(=O)NS(=O)(=O)c1cc(F)ccc1F"
  Percent Effect: "0.529%"
- COMPOUND: "COCc1nc(C(=O)N2CCCC2c2ccccc2C)cs1 (stereo not drawn)"
  Percent Effect: "9.38%"
- COMPOUND: "COc1ccc(CCN2CCCC(CN(C)Cc3ccc(C)o3)C2)cc1 (stereo not drawn)"
  Percent Effect: "5.38%"
- COMPOUND: "Cc1cn2c(n1)CCC(NC(=O)c1cc(C(C)C)no1)C2 (stereo not drawn)"
  Percent Effect: "6.67%"

Task: Fill in: Percent Effect of "CC(C)C(=O)NC1CCN(Cc2cccc3c2OCCO3)CC1" is ___
Output: 2.08%

Task: Any idea what its Percent Effect is? The compound is CN1CCCCC1c1ncc2c(n1)CCN(Cc1ccccc1Cl)C2 (stereo not drawn)
Output: 19.1%

Task: Consider the compound shown here: O=C(c1cccnc1)N1CCCC2(CCN(c3ccsc3)C2=O)C1 (stereo not drawn) What is its recorded Percent Effect?
Output: -7.41%
